Would you kindly list melting point for each of these molecules?
Answer format: numeric, °C implied, no suffix.

Q) Entry COc1cc2c(c3c1c(=O)c1cc4ccccc4cc1n3C)[C@@H](OC(C)=O)[C@@H](OC(=O)CCCC(=O)O)C(C)(C)O2 (racemic) [Example 3] has what melting point?
A) 155

Q) Entry COc1cc2c(c3c1c(=O)c1cc4ccccc4cc1n3C)[C@@H](OC(=O)CCC(=O)O)[C@@H](OC(=O)CCC(=O)O)C(C)(C)O2 (racemic) [Example 7] has what melting point?
A) 128

Q) Entry COc1cc2c(c3c1c(=O)c1cc4ccccc4cc1n3C)[C@@H](OC(=O)CCCC(=O)O)[C@@H](OC(=O)CCCC(=O)O)C(C)(C)O2 (relative stereo) [Example 22] has what melting point?
A) 118

Q) Entry COc1cc2c(c3c1c(=O)c1cc4ccccc4cc1n3C)[C@@H](OC(C)=O)[C@@H](OC(=O)CCC(=O)O)C(C)(C)O2 (racemic) [Example 1] has what melting point?
A) 154
